- Test system: intracellular T. cruzi Tulahuen LacZ amastigotes
- procedure_summary: microbe, parasite or virus in culture
- Format: cell-based, Trypanosoma cruzi
- experimental_conditions: selectivity index
readout_name: SI^1 (CC50 HFF-1/IC50 T. cruzi)
Write the number on its own, no unit after it.

# input Item under review: `C=C1[C@@H](C)[C@H]2[C@H](Cc3ccccc3)NC(=O)[C@]23OC(=O)/C=C/C(=O)CCC[C@@H](C)C/C=C/[C@H]3[C@@H]1O` . Reported SI^1 (CC50 HFF-1/IC50 T. cruzi)?
# output 8.96

# input Any idea what its SI^1 (CC50 HFF-1/IC50 T. cruzi) is? The molecule is CC(=O)OC1C=CC(C)(O)C(=O)C(C)CC=CC2C(O)C(C)=C(C)C3C(Cc4ccccc4)NC(=O)C123 (centres unmarked)
# output 7.45

# input Which value of SI^1 (CC50 HFF-1/IC50 T. cruzi) has been reported for `C=C1[C@@H](C)[C@H]2[C@H](Cc3ccccc3)NC(=O)[C@]23OC(=O)/C=C/[C@H](O)CCC[C@@H](C)C/C=C/[C@H]3[C@@H]1O` in the records?
# output 1.29

# input For the molecule shown here, `C=C1[C@@H](C)[C@H]2[C@H](Cc3ccccc3)NC(=O)[C@]23[C@H](OC(C)=O)/C=C/[C@@](C)(O)C(=O)[C@@H](C)C/C=C/[C@H]3[C@@H]1O` , give the reported SI^1 (CC50 HFF-1/IC50 T. cruzi).
# output 4.78

---

- Tested on: intracellular L. infantum amastigotes
- procedure_summary: microbe, parasite or virus in culture
- Format: cell-based, Leishmania infantum
- experimental_conditions: selectivity index
readout_name: SI^4 (CC50 HepG2/IC50 L. infantum)
Just the number.

# input Would you mind telling me what SI^4 (CC50 HepG2/IC50 L. infantum) value was observed for C=C1[C@@H](C)[C@H]2[C@H](Cc3ccccc3)NC(=O)[C@]23OC(=O)/C=C/C(=O)CCC[C@@H](C)C/C=C/[C@H]3[C@@H]1O [Cytochalasin A] ?
# output 7.65

# input Please report the recorded SI^4 (CC50 HepG2/IC50 L. infantum) for C=C1[C@@H](C)[C@H]2[C@H](Cc3ccccc3)NC(=O)[C@]23[C@H](OC(C)=O)/C=C/[C@@](C)(O)C(=O)[C@@H](C)C/C=C/[C@H]3[C@@H]1O [Cytochalasin D] .
# output 5.46

# input Sample C=C1[C@@H](C)[C@H]2[C@H](Cc3ccccc3)NC(=O)[C@]23OC(=O)/C=C/[C@H](O)CCC[C@@H](C)C/C=C/[C@H]3[C@@H]1O [Cytochalasin B] — what was its SI^4 (CC50 HepG2/IC50 L. infantum)?
# output 1.93

# input What value of SI^4 (CC50 HepG2/IC50 L. infantum) has been recorded for this entry: CC(=O)OC1C=CC(C)(O)C(=O)C(C)CC=CC2C(O)C(C)=C(C)C3C(Cc4ccccc4)NC(=O)C123 (stereo not shown) [Cytochalasin C]
# output 0.96

---

Consider the following compounds; for each one, report its SI^2 (CC50 THP-1/IC50 L. infantum).
- Tested on: intracellular L. infantum amastigotes
- procedure_summary: microbe, parasite or virus in culture
- Assay type: cell-based, Leishmania infantum
- experimental_conditions: selectivity index

# input I would be grateful if you could share the reported SI^2 (CC50 THP-1/IC50 L. infantum) for CC(=O)OC1C=CC(C)(O)C(=O)C(C)CC=CC2C(O)C(C)=C(C)C3C(Cc4ccccc4)NC(=O)C123 (centres unmarked) .
# output 3.65

# input Please look up its SI^2 (CC50 THP-1/IC50 L. infantum): `C=C1[C@@H](C)[C@H]2[C@H](Cc3ccccc3)NC(=O)[C@]23OC(=O)/C=C/C(=O)CCC[C@@H](C)C/C=C/[C@H]3[C@@H]1O`
# output 6.17

# input Requested read-out: SI^2 (CC50 THP-1/IC50 L. infantum). Entry: `C=C1[C@@H](C)[C@H]2[C@H](Cc3ccccc3)NC(=O)[C@]23[C@H](OC(C)=O)/C=C/[C@@](C)(O)C(=O)[C@@H](C)C/C=C/[C@H]3[C@@H]1O`
# output 5.42

# input Need SI^2 (CC50 THP-1/IC50 L. infantum), item CCCCCCCCCCCCCCCCOP(=O)([O-])OCC[N+](C)(C)C [MIL, miltefosine, reference compound]
# output 53.14

# input Reported SI^2 (CC50 THP-1/IC50 L. infantum) for `C=C1[C@@H](C)[C@H]2[C@H](Cc3ccccc3)NC(=O)[C@]23OC(=O)/C=C/[C@H](O)CCC[C@@H](C)C/C=C/[C@H]3[C@@H]1O` : what is it?
# output 4.57

---

- procedure_summary: in vitro
- Assay type: cell-based
- experimental_conditions: human; 72 h, resazurin; read-out: THP-1 CC50 (μM ± SD)
Can you tell me CC50 for the items I'm about to list?
Reply numerically in µM, unit not repeated.

# input Endpoint output: CC50 of `C=C1[C@@H](C)[C@H]2[C@H](Cc3ccccc3)NC(=O)[C@]23OC(=O)/C=C/[C@H](O)CCC[C@@H](C)C/C=C/[C@H]3[C@@H]1O` . Value?
# output 109

# input Look up CC50: CCCCCCCCCCCCCCCCOP(=O)([O-])OCC[N+](C)(C)C [MIL, miltefosine, reference compound]
# output 58.5

# input Consider the compound shown here: `C=C1[C@@H](C)[C@H]2[C@H](Cc3ccccc3)NC(=O)[C@]23OC(=O)/C=C/C(=O)CCC[C@@H](C)C/C=C/[C@H]3[C@@H]1O` What is its recorded CC50?
# output 17

# input // query CC50 value for entry COc1cccc2c1C(=O)c1c(O)c3c(c(O)c1C2=O)C[C@@](O)(C(=O)CO)C[C@@H]3O[C@H]1C[C@H](N)[C@H](O)[C@H](C)O1 [DOX, doxorubicin, reference compound]
# output 0.97

# input Request the reported CC50 associated with `C=C1[C@@H](C)[C@H]2[C@H](Cc3ccccc3)NC(=O)[C@]23[C@H](OC(C)=O)/C=C/[C@@](C)(O)C(=O)[C@@H](C)C/C=C/[C@H]3[C@@H]1O`
# output 122

# input GET /values?readout=CC50&item= CC(=O)OC1C=CC(C)(O)C(=O)C(C)CC=CC2C(O)C(C)=C(C)C3C(Cc4ccccc4)NC(=O)C123 (stereo not drawn)
# output 84.8

---

Consider the following molecules; for each one, report its solubility kinetic.
- procedure_summary: physchem
- Type: physicochemical
- experimental_conditions: aqueous buffer, kinetic from dmso stock; PBS pH 2.0, 24 h; read-out: Kinetic Solubility pH 2.0 (LogS) (converted)
// units = µM; emit number, no label

# input What value of measured solubility kinetic is listed for C=C1[C@@H](C)[C@H]2[C@H](Cc3ccccc3)NC(=O)[C@]23[C@H](OC(C)=O)/C=C/[C@@](C)(O)C(=O)[C@@H](C)C/C=C/[C@H]3[C@@H]1O [Cytochalasin D] ?
# output 42.7

# input Dear colleague, I am looking for the recorded solubility kinetic of the following molecule: CC(=O)OC1C=CC(C)(O)C(=O)C(C)CC=CC2C(O)C(C)=C(C)C3C(Cc4ccccc4)NC(=O)C123 (stereo not shown) [Cytochalasin C]
# output 17

# input Recorded solubility kinetic for C=C1[C@@H](C)[C@H]2[C@H](Cc3ccccc3)NC(=O)[C@]23OC(=O)/C=C/C(=O)CCC[C@@H](C)C/C=C/[C@H]3[C@@H]1O [Cytochalasin A] , please?
# output 39.8

# input Query: solubility kinetic; subject: C=C1[C@@H](C)[C@H]2[C@H](Cc3ccccc3)NC(=O)[C@]23OC(=O)/C=C/[C@H](O)CCC[C@@H](C)C/C=C/[C@H]3[C@@H]1O [Cytochalasin B]
# output 77.6

---

Provide the recorded chromatographic logD for the entries that follow.
- procedure_summary: physchem
- Type: physicochemical
- experimental_conditions: pH 7.4, from LC retention time calibration; read-out: LogD 7.4 (Oct/buff)
- Description: To analyse cytochalasin lipophilicity, a methodology based on the retention time of molecules in stationary phase was used in LC-MS/MS (liquid chromatography-tandem mass spectrometry) Prominence UFLC (Shimadzu Corporation, Kyoto, Japan) and an interface with an LCMS-8045 triple quadrupole mass spectrometer (Shimadzu Corporation, Kyoto, Japan) with an electrospray ionization source (ESI). The chromatogram was obtained using a Supelco Ascentis express RP amide HPLC column (5 cm x 2.1 mm, 2.7 μM). […]

# input Requested field: chromatographic logD. Item: `C=C1[C@@H](C)[C@H]2[C@H](Cc3ccccc3)NC(=O)[C@]23OC(=O)/C=C/C(=O)CCC[C@@H](C)C/C=C/[C@H]3[C@@H]1O`
# output 3.91

# input Which chromatographic logD reading was recorded for the molecule CC(=O)OC1C=CC(C)(O)C(=O)C(C)CC=CC2C(O)C(C)=C(C)C3C(Cc4ccccc4)NC(=O)C123 (stereo not shown) ?
# output 3.43

# input Please look up its chromatographic logD: `C=C1[C@@H](C)[C@H]2[C@H](Cc3ccccc3)NC(=O)[C@]23OC(=O)/C=C/[C@H](O)CCC[C@@H](C)C/C=C/[C@H]3[C@@H]1O`
# output 3.36

# input Can you share its chromatographic logD? I mean this molecule: `C=C1[C@@H](C)[C@H]2[C@H](Cc3ccccc3)NC(=O)[C@]23[C@H](OC(C)=O)/C=C/[C@@](C)(O)C(=O)[C@@H](C)C/C=C/[C@H]3[C@@H]1O`
# output 3.04
